# assay-overview: protein stability index of a GFP-peptide fusion (yeast GPS) (PSI 1-4); higher = more stable; sorted into four equal gates, so the index is relative within each strain
# protocol-conditions: san1∆
Lab note: compare protein stability index against 2. Equal or greater, write 1. Smaller, write -1.

Form field: protein stability index at least 2? Entry: ENRKKDESDSENDIEIK [YLR335W/NUP2] -1

Tell me whether protein stability index is at least 2 here: SLSNPNSTATMQHNPLA [PGD1] 1

protein stability index >= 2 for QLGLQTVIRGNSIISLE [SMX2] ? 1

Assess whether reported protein stability index for LDEDDTNDGIERYSDKY [RPC31] sits at 2 or higher. 1

API: above_or_equal(metric=protein stability index, cutoff=2) for item LTRFSHDADLEVSMNSI [RPN1] 1

Tell me whether protein stability index is at least 2 here: DIISGKIHSILPVMESL [YJR042W/NUP85] 1

Kindly determine if protein stability index recorded for KLSSAENANADLENKFN [YIL149C/MLP2] is above or exactly 2. 1

Determine whether this sequence has protein stability index no lower than 2: FGNKPAGSTGFSFGQNN [YGR119C/NUP57] -1

Could you verify whether the entry ELSNELSRLSTASKIIV [MED1] shows protein stability index of no less than 2? 1

Check if protein stability index >= 2 (inclusive). Item: VLKFAAHTGATPIAGRF [RPS0A] 1

Decide: protein stability index of LLTNDESAFENLMGNRN [SNF12] >= 2? 1

// inclusive: protein stability index at least 2? input: SLRILAKLSERSNGSVA [YJL039C/NUP192] -1

# check: protein stability index of VSDSEIIDLNLHSFTKQ [POP6] is greater than or equal to 2 1

Evaluate PLDRLENVLAIGIAGAH [SKI6] : protein stability index at minimum 2? -1

###

# assay-overview: protein stability index of a GFP-peptide fusion (yeast GPS) (PSI 1-4); higher = more stable; sorted into four equal gates, so the index is relative within each strain
# protocol-conditions: doa10∆
Label met when protein stability index is at or above 3; anything below gets not met.

In plain terms: is recorded protein stability index at least 3 for NLSEARLVIKEALVERR [RPB4] ? met

Kindly determine if protein stability index recorded for LDPLTKDPVDFVRQAAM [RPN2] is above or exactly 3. met

I'd appreciate it if you could say whether QVRNQVFMLDTKRLGTP [RGR1] has protein stability index at least equal to 3. not met

Form field: protein stability index at least 3? Entry: ENSTSNSKPEKSSDSND [YLR335W/NUP2] met

Quick check, protein stability index >= 3? DYSEIQRSRRKFSERRK [DSN1] not met

Could you tell me if the measured protein stability index of LLSDPTITIKSYHLWPS [PRP8] reaches 3 or more? not met

Evaluate IVKTSSGNEMPPQDAEG [RPS19A] : protein stability index at minimum 3? not met

protein stability index >= 3 for CVNLSLFDARFERKNPH [SRB8] ? met

Decide: is the reported value of protein stability index for FISYHDKYLCMLKTCVF [NUT1] equal to or greater than 3? not met

Check if protein stability index >= 3 (inclusive). Item: NLEIPAYEFDGDKVIVG [RIP1] not met

For this sequence, is measured protein stability index 3 or higher? AETQGSKVVIDSIIDNI [IRR1] not met

Decide: protein stability index of NWRKQKGIDSVVRRRFR [RPL32] >= 3? not met
